This collection of values is drawn from the supplement of paper PMC9170038.

# System: MS2 coat protein
# assayMethodText: apparent KD of MS2 coat protein; designed switch direction (-1 OFF switch, 1 ON switch): 1; higher = weaker reporter binding
# assaySetup: input ligand: microRNA oligo, concentration not stated
Kindly return 1 if reported apparent KD of MS2 coat protein is no lower than 90 nM; return -1 if it is lower.

Here are 7 sequences together with their reported answers.
primarySequence	measuredOn	assignedClass
ACCCAAAGUAUAUGGGAGCAAGCUUUUUAACAUGAGGAUCACCCAUGUACUCGUCUUAUAAGCAGUCGAAAGACUGC [Sensor 100 - 4] (Eterna round: R96, puzzle: Sensor for hsa-mir-208a)	MS2 coat protein	-1
UAGAAACAUGAGGAUCACCCAUGUGGGUUAAACACAGGAUAUCACGCCAAAAGAAAAGCGUGAGAAGGGUGACCGA [Xeusisus] (Eterna round: R96, puzzle: Same State 1)	MS2 coat protein	1
CGUCGUUUGAUAGGAUAUCGCUUUGCAUGAGGAUCACCCAUGUUUACCACGCUGGUUUUUCUUUCCGAGAAGGAUUCUGAUGUU [salish99_SSNG02_r04_024] (Eterna round: R96, puzzle: Same State NG 2)	MS2 coat protein	-1
UUAAUAAUGAUAGGAUAUACAUGAGGAAUUCUCGUAGAAGGAUCAUGACAUGAGGAUCACCCAUGUAUCGCUCGAUAGAGCGUA [Mat - Same State NG 1 - JL mod - D35] (Eterna round: R96, puzzle: Same State NG 1)	MS2 coat protein	1
UUAUUCUAUAUAGGAUAUUGAUGCAAUUUACCUCAAGAAGGAUAUACAUGAGGAUCACCCAUGUUGGAUAGGGUUAGUUUGUUU [JR_SSNG1_Sub081] (Eterna round: R96, puzzle: Same State NG 1)	MS2 coat protein	-1
GGUAUUAACACAGGAUAUGCUUACGAAACGUAAGCAGAAGGGUGAACAUGAGGAUCACCCAUGUUUGUACCAGGGCGUGAGCCC [JL SSNG1 1.72] (Eterna round: R96, puzzle: Same State NG 1)	MS2 coat protein	1
GGGAGAGGCGCAGGAUAUGGUGAGGAUUACCCACUAGAAGGGUGCACAUGAGAAUCGAACAUGAGGAUCACCCAUGUUCUGAGC (Eterna round: R96, puzzle: Same State NG 1)	MS2 coat protein	1

Consider the record given below.
Q. State whether the measured apparent KD of MS2 coat protein reaches 90 nM, counting equality as reaching it, for UUUAUUAAUAUAGGAUAUGUAAAACAUGAGGAUCACCCAUGUGAUAUCGUGAGUAAGGAGAGAGAACAGAAGGAUAAUUUUUUU [JMF's solution 2] (Eterna round: R96, puzzle: Same State NG 2)
A. -1

====

Give measured apparent KD of MS2 coat protein for each item. Keep answers brief.
# System: MS2 coat protein
# assayMethodText: apparent KD of MS2 coat protein; higher = weaker reporter binding
# assaySetup: Eterna round: R107; input ligand: theophylline 20 uM
Give bare numbers, in nM.

These recorded examples may help you get a feel for the data.
primarySequence	apparent KD of MS2 coat protein, nM
AAUACCGGAUCGGCCGCCACUGGUUGGCCCUGUGUACAUGAGGAUCACCCAUGUCCAUCCCAGACCAGGACCGGGAUCUUUGUGU [Ingeraza]	20
UUUCAGUGGACGGCCGCCACUGAAGUCGAUACAAUCAUGUAGAACAUGAGGAUCACCCAUGUAGUCAGGACCGGGUCCAAUGACU [Tryp B SS t3]	21.3
UACAUGAGGAUCACCCAUGUAUGAAUAGAUACCAGAUAAAAUAAGGUCCCUUGGCAGCUAGUGAAUCGAGGGUGGGUAUCAUGAU [#12 Exclusion-TheophyllineA]	12.7
AGCCCUGUGCUAGAUACCAGCUACAUGAGGAUCACCCAUGUGCGUCAAGACUGACUGUGUAGCCCUUGGCAGCUACUCGCAUGUA [Exclusion - Theophylline B (Freestyle 4)]	19
UUAUUUAUAAUGGAUACCAGUCGUAUGGCCCGGCAUCCUGACAUGAGGAUCACCCAUGUCGACCCUUGGCAGCUGUUAUGGGUUU [XTheo B #21]	17
UUAAUCUUGGUUGAAAACAAUUAAGCAGAAGGAGCGUGAUAAAACACAGGUAGGUCGCUGAAGGGAACAUGAGGAUCACCCAUGU [AstrosSSArgA#14]	41.1
AUUCAUGGAAACAUGACAUAGGGAUCACUCCGAGGACCGGUACGGCCGCCACUCGCGAGGAGGCACAUGAGGAUCACCCAUGUUA [SS Tryp A #4]	73.8
GGGCGAGUGGACCGGCGUGCUCCGCUCCGUCGAGGACCGGUACGGCCGCCACUCGACAUGAGGAUCACCCAUGUGCGAGCUCGCG [#1 Exclusion - Tryptophan A Attempt #14 (HarryS)]	114

The following sequences each have a reported value; give each one's apparent KD of MS2 coat protein.
1. UGACAUUGCUCAGAUACCAGACAGGAGGAUCACUCCUGUGCCAACAAGUACAAAAUAAAUGUCCCUUGGCAGCUGAGCAAUGUCU [TheoBX 25 #MS2Left #AlternativeMS2 #Theo22]
2. UAUCCACAUGAGGAUCACCCAUGUAGGGAAGGAGCGGUGGUUUCACCAGGUAGGUCGCCUUACUGAGGAGAACCGGUGGAAUCGU [Exclusion - Arginine A (Freestyle 29)]
3. UGGCAGGAGUGAUCCUCCUGCCAAGGUGAUACCAGCAUCGAAAGAUGCCCUUGGCAGCACCAACAUGAGGAUCACCCAUGUAAUA [(MT)''-(M)'-(T')-(Theo)-(Ms2)_Design1/22_10]
4. CCGAACAUGAGGAUCACCCAUGUUAGGGAUACCAGCCCAGACAUGGGCCCUUGGCAGCUCUAUAGCUGACGAAAGUCAGCAUCGG [#14 SameState-TheophyllineA]
5. AAUAAACAUGAGGAUCACCCAUGUAGGGUGCGAGGACCGGUACGGCCGCCACUCGGGUGAAAACAUGAGGAUCACCCAUGUAAAA [Mat - Exclusion - Trytophan A - D23]
6. GGAUAGGACACGGCCGCCACUGCCUAGGAUACUAGCAACAUUUGGGUACAUGAGGAUCACCCAUGUAGGACCGGGUGUCCUAUCG

A.
[223, 61.7, 177, 65.7, 185, 70.9]

Would you mind listing apparent KD of MS2 coat protein for each of the following sequences?
1. GAAGGAACCGGAAGGAGCGGGUCCUUAGCCACUACAUGAGGAUCACCCAUGUCCGGGAGGUCCCAGGUAGGUCGCCGGUCUUAAA [Gelece]
2. UCGUCAGGCGCGGCCGCCACUGCGGUGAUGUGACAUGAGGAUCACCCAUGUUGUCAUGUGGCACAUAGGACCGGGUGCCUGGCGA [Exclusion - Tryptophan B Attempt #5 (HarryS)]
3. ACACAUGAGGAUCACCCAUGUCCAAUAGAUACCAGUGAUACGGUGCACCCUUGGCAGCUGUUGCUGAGUGAUGGUUCCCUCGGAA [Same State Theophylline A GF4]
4. GAUCCGUACCAGACCUUCAAUGGACUCAGUCGAGGACCGGUACGGCCGCCACUCGGAGAAGAACAUGAGGAUCACCCAUGUGAUG [theeternabot_exclusion_MS2_Trp_A_36]
5. UGUAUGUGAUUUGAUACCAGACCAGCGGGUGUUGCAUGAGGAUCACCCAUGUAGGUUUGGGUCCCUUGGCAGCAAAUCGCAUACU [SS Theo B #24 Ms18]
6. ACCUGUACGAAAAGUGCAGGACAUGAAUAACGAGGACCGGUACGGCCGCCACUCGGGUAAUAACCUGAGGAUCACCCGGGUCAUG [TrypAS 6 #AlternativeMS2 #Zipper #StaticStem]
7. UGCCUAGACGUGGAUUACCCGUGUACCGAAGGAGCGCCCGAAAGGGCAGGUAGGUCGCGGAGGACAUGAGGAUCACCCAUGUUUG
8. AUCGUACCUGAUGAUACCAGCAAUUGCUCGUAACAUGAGGAUCACCCAUGUGACCAGUGAUGCCCUUGGCAGCAUGAUCGGUGCA [Same State - Theophylline B (Freestyle 20)]

A.
[324, 44.5, 138, 47, 438, 211, 123, 48.9]
